target: human GCG receptor (human, UniProt P47871 26-477); experiment: cell-based or functional assay
Sequence (P47871 26-477): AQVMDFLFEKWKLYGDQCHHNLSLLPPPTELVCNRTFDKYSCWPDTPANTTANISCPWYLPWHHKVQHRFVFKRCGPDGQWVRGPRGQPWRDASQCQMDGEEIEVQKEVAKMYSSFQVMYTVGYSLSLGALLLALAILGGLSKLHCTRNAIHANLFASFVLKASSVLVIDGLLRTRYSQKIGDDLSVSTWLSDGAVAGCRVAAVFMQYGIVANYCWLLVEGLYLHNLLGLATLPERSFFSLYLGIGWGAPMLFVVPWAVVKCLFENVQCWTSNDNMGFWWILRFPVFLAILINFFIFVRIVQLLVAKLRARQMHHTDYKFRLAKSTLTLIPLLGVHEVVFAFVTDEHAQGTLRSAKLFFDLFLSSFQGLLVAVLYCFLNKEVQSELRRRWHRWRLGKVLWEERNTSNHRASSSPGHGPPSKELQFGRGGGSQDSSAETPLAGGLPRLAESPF
Bridges are numbered along the chain shown (N, C = ends). Where no end group is shown, it is not given here. [ ]: non-standard residue; d: D form. The star is where a group is joined. Acetyl(2-(4-imidazolyl)) = O=C(Cc1c[nH]cn1)*; Aib = CC(C)(N)C(=O)O
Cut-off 1% on In vitro activity relative to native peptide (%) vs. Glucagon, inclusive. At or above means rule met; below means rule not met.

binder | discrete_label
H[Aib]QGTFTSDVSSYLLGQQQKEFIAWLVKGC [triple agonist of SEQ ID NO: 4] | rule not met
[Acetyl(2-(4-imidazolyl))]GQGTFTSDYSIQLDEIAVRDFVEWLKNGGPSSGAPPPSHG [triple agonist of SEQ ID NO: 14] | rule not met
H[Aib]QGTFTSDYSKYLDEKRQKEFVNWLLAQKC (bridge 16-20) [triple agonist of SEQ ID NO: 34] | rule not met
{Acetyl(2-(4-imidazolyl))}-[Aib]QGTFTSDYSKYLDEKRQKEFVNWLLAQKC (bridge 15-19) [triple agonist of SEQ ID NO: 93] | rule not met
H[Aib]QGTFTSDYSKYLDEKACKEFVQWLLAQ (bridge 16-20) [triple agonist of SEQ ID NO: 31] | rule met
[Acetyl(2-(4-imidazolyl))][Aib]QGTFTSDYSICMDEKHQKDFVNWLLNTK (bridge 16-20; not fully specified) [triple agonist of SEQ ID NO: 59] | rule not met

Challenge: Textbook exercise: given the entry H[Aib]QGTFTSDYSKYLDGQHAQCFVAWLLAGGGPSSGAPPPS [triple agonist of SEQ ID NO: 39] , state whether its In vitro activity relative to native peptide (%) vs. Glucagon is greater than or equal to 1%.
Response given: rule not met

Challenge: Can you handle HGQGTFTSDCSKYLDEQHAQEFVAWLLAGGPSSGAPPPS [triple agonist of SEQ ID NO: 46] next?
Response given: rule not met

Challenge: Can you handle H[Aib]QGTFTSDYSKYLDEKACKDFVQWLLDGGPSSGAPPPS (bridge 16-20) [triple agonist of SEQ ID NO: 32] next?
Response given: rule met

Challenge: Can you handle Y[Aib]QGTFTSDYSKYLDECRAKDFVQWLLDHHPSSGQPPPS (bridge 16-20) [triple agonist of SEQ ID NO: 66] next?
Response given: rule met

Challenge: Can you handle [Acetyl(2-(4-imidazolyl))]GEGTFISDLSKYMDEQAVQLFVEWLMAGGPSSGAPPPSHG [triple agonist of SEQ ID NO: 12] next?
Response given: rule not met
